experimental-system: Acetylcholinesterase (Rattus norvegicus, UniProt P37136)
Sequence (P37136 whole entry): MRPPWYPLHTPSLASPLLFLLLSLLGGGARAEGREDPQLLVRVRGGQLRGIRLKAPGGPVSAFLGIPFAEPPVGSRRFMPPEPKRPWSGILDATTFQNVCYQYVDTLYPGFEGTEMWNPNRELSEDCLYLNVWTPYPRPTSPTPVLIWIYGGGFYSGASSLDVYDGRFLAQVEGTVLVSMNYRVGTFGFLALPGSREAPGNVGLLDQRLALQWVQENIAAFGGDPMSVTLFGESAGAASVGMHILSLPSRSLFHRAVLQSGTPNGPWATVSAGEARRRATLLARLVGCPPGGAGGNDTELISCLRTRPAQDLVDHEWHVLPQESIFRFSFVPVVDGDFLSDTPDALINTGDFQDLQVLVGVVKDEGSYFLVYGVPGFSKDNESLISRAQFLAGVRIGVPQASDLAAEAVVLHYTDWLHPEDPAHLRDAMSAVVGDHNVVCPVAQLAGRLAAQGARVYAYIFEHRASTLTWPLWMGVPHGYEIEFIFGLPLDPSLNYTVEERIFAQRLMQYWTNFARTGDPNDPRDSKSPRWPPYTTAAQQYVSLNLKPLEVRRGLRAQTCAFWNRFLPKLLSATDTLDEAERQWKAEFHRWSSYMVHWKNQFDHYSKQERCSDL
pIC50: −log10 of the molar value.
metric-name: pIC50

>>> reported_measurement("CC(C)=CCn1c2c(ccc1=O)C(NCCc1ccc(F)c(F)c1)CCC2 (centres undefined)")
6.01
>>> reported_measurement("Cn1c2c(ccc1=O)C(NCCCc1ccccc1)CCC2 (centres undefined)")
4.31
>>> reported_measurement("CCCn1c2c(ccc1=O)C(NCCC(C)(C)C)CCC2 (centres undefined)")
4.81
>>> reported_measurement("CC(C)n1c2c(ccc1=O)C(NCCc1ccc(Cl)c(Cl)c1)CCC2 (centres undefined)")
4.46
>>> reported_measurement("CC(C)=CCn1c2c(ccc1=O)C(NCCc1ccccc1Cl)CCC2 (centres undefined)")
6.28
>>> reported_measurement("CCCn1c2c(ccc1=O)C(NC1Cc3ccccc3C1)CCC2 (centres undefined)")
5.41
>>> reported_measurement("CCCn1c2c(ccc1=O)C(NCCc1cccs1)CCC2.O=C(O)/C=C/C(=O)O (centres undefined)")
5.22
>>> reported_measurement("O=c1ccc2c(n1Cc1ccccc1)CCCC2NCCc1ccc(Cl)c(Cl)c1 (centres undefined)")
4.76
>>> reported_measurement("CC(C)=CCn1c2c(ccc1=O)C(NCCc1cc(Cl)cc(Cl)c1)CCC2 (centres undefined)")
6.10
>>> reported_measurement("CCCCCCCCCCn1c2c(ccc1=O)C(NCCc1ccc(Cl)c(Cl)c1)CCC2 (centres undefined)")
4.47
>>> reported_measurement("Cc1ccc(CCNC2CCCc3c2ccc(=O)n3C)cc1 (centres undefined)")
4.74
>>> reported_measurement("CC(C)=CCn1c2c(ccc1=O)C(NCCc1ccc(O)cc1)CCC2 (centres undefined)")
6.40
>>> reported_measurement("COc1cccc(CCNC2CCCc3c2ccc(=O)n3CC=C(C)C)c1 (centres undefined)")
5.96
>>> reported_measurement("C=CCn1c2c(ccc1=O)C(NCCc1ccc(Cl)c(Cl)c1)CCC2 (centres undefined)")
5.04
>>> reported_measurement("CC(C)=CCn1c2c(ccc1=O)C(NCCc1cccc(Cl)c1)CCC2 (centres undefined)")
6.28
>>> reported_measurement("O=c1ccc2c(n1CCc1ccccc1)CCCC2NCCc1ccc(Cl)c(Cl)c1 (centres undefined)")
4.30
>>> reported_measurement("CC(C)=CCn1c2c(ccc1=O)C(NCCc1ccc(Cl)c(Cl)c1)CCC2 (centres undefined)")
6.29
